The origin of these recorded values is BindingDB's records for patent US20250230147.

pIC50: −log10 of the molar value.
Here's a batch of compounds along with measured pIC50 for E3 ubiquitin-protein ligase CBL (Homo sapiens, UniProt P22681).
resultType: pIC50

a: Cn1cnnc1[C@@H](F)[C@@](C)(F)c1cccc(N2Cc3c(cc(CN4CCC5(CC5)C4)cc3C(F)(F)F)C2=O)c1
b: Cn1cnnc1[C@@H](F)[C@](C)(F)c1cccc(N2Cc3c(cc(CN4CCC5(CC5)C4)cc3C(F)(F)F)C2=O)c1
c: Cn1cnnc1[C@H](F)C1(c2cccc(N3Cc4c(Cl)cc(CNC5(C)CCC5)cc4C3=O)c2)COC1
Task: Order these by pIC50, descending, and give the full ranking. Respond with an ordered listing of the labels, as requested.
Result: c, b, a
(c: 8.07, b: 6.34, a: 4.89)
